# tested-on: T1, human CLDN18.2 (human)
# T1 construct: over-expressed on HEK293T or OCUM-1 cells by lentivirus; KATO-III and NUGC4 gastric cancer cells express it naturally; also called hCLDN18.2; hCLDNA18.2
# protocol-details: imaging cytometry (% fluorescent cells), HEK293-hCLDN18.2 cells
measured-attribute: EC50 (mg/L)

1. 44F7 (antibody, V domains shown, murine monoclonal antibody purified from hybridoma culture supernatant) VH: QVQLQQSGAELVRPGASVKMSCKASGYTFTSYNMHWVKQAPRQGLEWIGTIYPGNGDTSYNQKFKGKATLTVDKSSSTAYMQLSSLTSEDSAVYFCARGGYYGNSLDYWGQGTTLTVSS VL: DIQMTQSPSSLTVTAGEKVTMSCKSSQSLLNSGNQKNYLTWYQQKPGQPPKLLIYWASTRESGVPDRFTGSGSGTDFTLTISSVQAEDLAVYYCQNAYYYPFTFGSGTKLEIK: 0.028
2. 10B11 (antibody, V domains shown, murine monoclonal antibody purified from hybridoma culture supernatant) VH: QVQMKESGAELVKPGASVKISCKASGYAFSTYWMDWVKQRPGKGLEWIGQIYPGNGDTNYNGKFKGKATLTADKSSSTADMQLSSLTSEDSAVYFCARLGYGNSFTYWGQGTLVTVSA VL: DIQVTQSPSSLTVTAGEKVTMSCKSSQSLLNSGNQKNYLTWYQQKPGQPPKLLIYWASTRESGVPDRFTGSGFGTDFTLTISSVQAEDLAVYYCQNAYFYPFTFGSGTKLEIK: 0.038
3. 9F3 (antibody, V domains shown, murine monoclonal antibody purified from hybridoma culture supernatant) VH: EVRLQQSGPELVKPGASVKIPCKASGYKFTDYNMDWVKQSHGKSLEWIGEINPNNGGTIYNQKFKGKATLTVDKSSSTAYMELRSLTSEDTAVYYCARIYYGNSFAYWGQGTLVTVSS VL: DIVMTQSPSSLTVTAGEKVTMSCKSSQSLLNSGNLKNYLTWYQQKPGQPPKLLIYWASTRESGVPDRFTGSGSGTDFTLTISSVQAEDLAVYYCQNDYFYPLTFGAGTKLEIK: 0.053
4. 2F12 (antibody, V domains shown, murine monoclonal antibody purified from hybridoma culture supernatant) VH: EVQLVESGGGLVKPGGSLKLSCAASGFTFSDYGIHWVRQAPEKGLEWVAYISSGSSTIYYADTVKGRFTISRDNAKNTLFLQMTSLRSEDTAIYYCAKWDRGNCFDYWGQGTTLTVSS VL: DIVLTQSPSSLTVTAGEKVTMSCKSSQSLLNSGNQKKYLTWYQQKVGQPPKLLIYWASIRECGVPDRFTGSGSGTDFILTISSVQAEDLAVYYCQNAYSYPLTFGAGTKLELK: 0.041
